Reported values of TGI for individual entries
- System: HCC-2998 colon
- Experiment: NCI tumour cell line growth inhibition, 48 h

Use the examples below as a reference point.
Query: I have this compound here, `CC[C@H](C)[C@H](NC(=O)[C@H]1CCCCN1C)C(=O)N(C)[C@H](C[C@@H](OC(C)=O)c1cccc(C(=O)N[C@@H](Cc2ccccc2)C[C@H](C)C(=O)OC)n1)C(C)C` , and I need its recorded TGI.
Response: > 25 µM

Query: # iterate: COc1ccc(C(=O)C#Cc2cn(C3CC(O)C(CO)O3)c(=O)[nH]c2=O)cc1 (centres undefined)
Response: > 100 µM

Query: # iterate: `COc1cc2cc(OC(C)=O)c3cc4c(cc3c2c(OC)c1OC)OCO4`
Response: > 100 µM

Query: # iterate: `CN[C@H]1CN(c2ccc3c(=O)c(C(=O)O)cn(-c4nccs4)c3n2)C[C@@H]1OC`
Response: 3.58 µM

Query: # iterate: CCOC1CN=C(Nc2cccc3ccccc23)S1 (centres undefined)
Response: > 10 µM

Further cases:
Query: I have this compound here, `O=C1/C(=C\c2ccc(Cl)cc2)N=C(c2ccccc2)N1n1c(=O)cn[nH]c1=S` , and I need its recorded TGI.
Response: > 100 µM

Query: # iterate: `O=C(CN(/C=C/C(=O)C(F)(F)F)c1ccc(Cl)cc1)c1ccc(Cl)cc1`
Response: 35 µM

Query: # iterate: `COc1ccc(N=c2oc3ccccc3cc2C(N)=O)cc1`
Response: > 100 µM

Query: # iterate: `O=C(CCC(=O)Nc1ccc(Cl)c(Cl)c1)Cc1nc2ccccc2o1`
Response: > 100 µM

meta.source: PubChem BioAssay (NCI)
